- SYSTEM_UNDER_TEST: SHP2^WT (1–593) (Homo sapiens, UniProt Q06124)
- Construct: made in house; host or cells: E. coli BL21 Star (DE3), pET30 vector
- PROTOCOL_SUMMARY: SHP-2 prompt fluorescence phosphatase assay (DiFMUP), SHP2^WT
- Assay type: biochemical
- CONDITION_SET: SHP-2_case sheet; same IC50 restated in another unit; read-out: IC50nM
OBSERVATION_TYPE: IC50 (nM)
Supply the numeric figure in nM, leaving out any unit text.

See these solved cases before continuing.
Nc1cc(NC2CCNCC2)cnc1-c1cccc(Cl)c1Cl : 23500
CC1(N)CCN(c2cnc(Sc3cccc(Cl)c3Cl)c(N)c2)CC1 : 11200
Nc1cc(NC2CCNC2)cnc1-c1cccc(Cl)c1Cl (centres unmarked) : 5170

Summary for this compound, CC1(N)CCN(c2cnc(-c3cccc(F)c3Cl)c(N)c2)CC1 : IC50 is 15100

Summary for this compound, Nc1cc(N2CCC3(CCCC3N)CC2)cnc1Sc1cccc(Cl)c1Cl (centres unmarked) : IC50 is 2290

Summary for this compound, CC1(N)CCN(c2cnc(-c3cccc(Cl)c3Cl)c(N)c2)CC1 : IC50 is 1490

Summary for this compound, CC1(N)CCN(c2cnc(-c3ccnc(Cl)c3Cl)c(N)c2)CC1 : IC50 is 10600

Summary for this compound, Nc1cc(NCC2CCCNC2)cnc1-c1cccc(Cl)c1Cl (centres unmarked) : IC50 is 15600

###

Quick reference for ΔGexp among some compounds
- SYSTEM_UNDER_TEST: SHP2^WT (1–593) (Homo sapiens, UniProt Q06124)
- Construct: made in house; host or cells: E. coli BL21 Star (DE3), pET30 vector
- PROTOCOL_SUMMARY: SHP-2 prompt fluorescence phosphatase assay (DiFMUP), SHP2^WT
- Assay type: biochemical
- CONDITION_SET: converted from IC50 with ΔGexp ≈ kBTlog IC50
- Description: Briefly, the constructs were transformed into BL21 Star^TM (DE3) cells and cultured at 37 °C for 3~4 h. Subsequently, the cells with high expression of SHP2 protein were harvested after being induced by IPTG and grown overnight at 18 °C. […] Then, the mixture was then incubated at 25 °C for 60 min. […] Fluorescence signal was detected using a microplate reader (Bio-Tek, Shanghai, China, Synergy2) at Ex/Em = 340/450 nm. […]
Supply the numeric figure in kcal/mol, leaving out any unit text.

See these solved cases before continuing.
Nc1cc(NC2CCNCC2)cnc1-c1cccc(Cl)c1Cl [Compound 4] : -6.311
Nc1cc(NCC2CCCNC2)cnc1-c1cccc(Cl)c1Cl (stereo not drawn) [Compound 2] : -6.553

Summary for this compound, CC1(N)CCN(c2cnc(-c3ccnc(Cl)c3Cl)c(N)c2)CC1 [Compound 6] : ΔGexp is -6.780

###

Quick reference for IC50 among some molecules
- SYSTEM_UNDER_TEST: SHP2^WT (1–593) (Homo sapiens, UniProt Q06124)
- Construct: made in house; host or cells: E. coli BL21 Star (DE3), pET30 vector
- PROTOCOL_SUMMARY: SHP-2 prompt fluorescence phosphatase assay (DiFMUP), SHP2^WT
- Assay type: biochemical
- CONDITION_SET: SHP2^WT, DiFMUP substrate, averages of three independent experiments; read-out: SHP-2 IC50
Supply the numeric figure in µM, leaving out any unit text.

See these solved cases before continuing.
CC1(N)CCN(c2cnc(Sc3cccc(Cl)c3Cl)c(N)c2)CC1 [Compound 7] : 11.3
CC1(N)CCN(c2cnc(-c3cccc(Cl)c3Cl)c(N)c2)CC1 [Compound 1] : 1.49
CC1(N)CCN(c2cnc(-c3ccnc(Cl)c3Cl)c(N)c2)CC1 [Compound 6] : 10.7
Nc1cc(NC2CCNCC2)cnc1-c1cccc(Cl)c1Cl [Compound 4] : 23.5
Nc1cc(N2CCC3(CCCC3N)CC2)cnc1Sc1cccc(Cl)c1Cl (centres unmarked) [Compound 8] : 2.29

Summary for this molecule, CC1(N)CCN(c2cnc(-c3cccc(F)c3Cl)c(N)c2)CC1 [Compound 5] : IC50 is 15.1

Summary for this molecule, Nc1cc(NC2CCNC2)cnc1-c1cccc(Cl)c1Cl (centres unmarked) [Compound 3] : IC50 is 5.17

Summary for this molecule, Nc1cc(NCC2CCCNC2)cnc1-c1cccc(Cl)c1Cl (centres unmarked) [Compound 2] : IC50 is 15.6

###

Quick reference for ΔGexp among some compounds
- SYSTEM_UNDER_TEST: SHP2^WT (1–593) (Homo sapiens)
- Construct: made in house; host or cells: E. coli BL21 Star (DE3), pET30 vector
- PROTOCOL_SUMMARY: SHP-2 prompt fluorescence phosphatase assay (DiFMUP), SHP2^WT
- Assay type: biochemical
- CONDITION_SET: converted from IC50 with ΔGexp ≈ kBTlog IC50
Supply the numeric figure in kcal/mol, leaving out any unit text.

See these solved cases before continuing.
CC1(N)CCN(c2cnc(Sc3cccc(Cl)c3Cl)c(N)c2)CC1 [Compound 7] : -6.747
CC1(N)CCN(c2cnc(-c3cccc(F)c3Cl)c(N)c2)CC1 [Compound 5] : -6.573
Nc1cc(NC2CCNC2)cnc1-c1cccc(Cl)c1Cl (centres unmarked) [Compound 3] : -7.207
Nc1cc(N2CCC3(CCCC3N)CC2)cnc1Sc1cccc(Cl)c1Cl (centres unmarked) [Compound 8] : -7.690

Pending compound:
Summary for this compound, CC1(N)CCN(c2cnc(-c3cccc(Cl)c3Cl)c(N)c2)CC1 [Compound 1] : ΔGexp is -7.943

###

- SYSTEM_UNDER_TEST: SHP2^WT (1–593) (Homo sapiens, UniProt Q06124)
- Construct: made in house; host or cells: E. coli BL21 Star (DE3), pET30 vector
- Sequence (Q06124 1-593): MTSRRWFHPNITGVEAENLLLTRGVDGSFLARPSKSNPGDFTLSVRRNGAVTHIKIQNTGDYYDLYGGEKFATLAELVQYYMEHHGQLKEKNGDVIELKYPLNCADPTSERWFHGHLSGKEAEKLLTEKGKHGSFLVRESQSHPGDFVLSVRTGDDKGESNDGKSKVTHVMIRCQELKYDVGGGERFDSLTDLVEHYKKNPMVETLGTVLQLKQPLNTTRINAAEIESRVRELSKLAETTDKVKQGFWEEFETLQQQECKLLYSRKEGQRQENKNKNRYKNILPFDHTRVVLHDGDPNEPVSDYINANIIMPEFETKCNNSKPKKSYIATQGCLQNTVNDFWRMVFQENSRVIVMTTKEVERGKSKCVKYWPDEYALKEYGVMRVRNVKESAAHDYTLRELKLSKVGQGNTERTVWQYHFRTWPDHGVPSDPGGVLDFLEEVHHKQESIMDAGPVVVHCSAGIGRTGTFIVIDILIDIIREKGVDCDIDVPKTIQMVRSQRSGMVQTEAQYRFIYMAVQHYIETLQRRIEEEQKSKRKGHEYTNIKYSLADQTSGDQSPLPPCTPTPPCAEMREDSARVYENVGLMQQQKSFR
- PROTOCOL_SUMMARY: SHP-2 prompt fluorescence phosphatase assay (DiFMUP), SHP2^WT
- Assay type: biochemical
- Design: unit not given here
- CONDITION_SET: experimental binding free energy converted from IC50
Quick reference for ΔG experiment among some molecules
Write the number on its own, no unit after it.

Nc1cc(N2CCC3(CCCC3N)CC2)cnc1Sc1cccc(Cl)c1Cl (stereo not drawn) [A-S8] : -7.69

Summary for this molecule, CC1(N)CCN(c2cnc(-c3cccc(Cl)c3Cl)c(N)c2)CC1 [A-S1] : ΔG experiment is -7.943

Summary for this molecule, Nc1cc(NCC2CCCNC2)cnc1-c1cccc(Cl)c1Cl (stereo not drawn) [A-S2] : ΔG experiment is -6.554

###

Quick reference for pIC50 among some molecules
- SYSTEM_UNDER_TEST: SHP2^WT (1–593) (Homo sapiens)
- Construct: made in house; host or cells: E. coli BL21 Star (DE3), pET30 vector
- PROTOCOL_SUMMARY: SHP-2 prompt fluorescence phosphatase assay (DiFMUP), SHP2^WT
- Type: biochemical
- CONDITION_SET: SHP-2_case sheet; designed SHP-2 inhibitors; read-out: IC50uM
Interpret pIC50 as the negative base-10 log of the concentration measured in mol/L.

See these solved cases before continuing.
CC1(N)CCN(c2cnc(-c3cccc(Cl)c3Cl)c(N)c2)CC1 : 5.83
CC1(N)CCN(c2cnc(-c3cccc(F)c3Cl)c(N)c2)CC1 : 4.82
Nc1cc(NC2CCNC2)cnc1-c1cccc(Cl)c1Cl (centres unmarked) : 5.29
Nc1cc(NC2CCNCC2)cnc1-c1cccc(Cl)c1Cl : 4.63

Result for Nc1cc(NCC2CCCNC2)cnc1-c1cccc(Cl)c1Cl (centres unmarked) , tested on SHP2^WT (1–593) (Homo sapiens), pIC50: 4.81

Result for CC1(N)CCN(c2cnc(-c3ccnc(Cl)c3Cl)c(N)c2)CC1 , tested on SHP2^WT (1–593) (Homo sapiens), pIC50: 4.97

Result for CC1(N)CCN(c2cnc(Sc3cccc(Cl)c3Cl)c(N)c2)CC1 , tested on SHP2^WT (1–593) (Homo sapiens), pIC50: 4.95

Result for Nc1cc(N2CCC3(CCCC3N)CC2)cnc1Sc1cccc(Cl)c1Cl (centres unmarked) , tested on SHP2^WT (1–593) (Homo sapiens), pIC50: 5.64
